Hello, the source for this data is patent US20240190983A1, in case you need it.

assaySystem: T1, African green monkey TNFR2 (Chlorocebus sabaeus (African green …))
T1 construct: whole, on cells
method: equilibrium binding of VHH-Fc-GpL to cells expressing African green monkey TNFR2, 37 C; column head Affinity (ng/ml)
parameterMeasured: Kd (µg/mL)
Give just the numeric value; µg/mL need not be written.

INSERT INTO results (binder, valuemeasured) VALUES
  ('VHH:C74-Fc-GpL (Fc fusion, also called VHH-Fc-GpL variant of C74; not shown: The Fc domain, the C-terminal GpL reporter and the linkers or tags of the VHH-Fc-GpL construct; No entry gives the joined chain or says which Fc variant was used) VHH: DVQLVESGGGLVQSGGSLRLSCAASGFPFSSSDMTWVRQTSGSVFEWVSDINPDGQNTRYADSVKGRFIISRDNAKSTLYLQMDSLKTDDTAVYYCAADPGSSGGSLSYWGKGTLVTVSS', 0.06);

Ask | # Kd lookup, item VHH:C238-Fc-GpL (Fc fusion, also called VHH-Fc-GpL format protein of C238; not shown: the listing has no entry for the VHH-Fc-GpL format) VHH: QVQLVESGGGSVQPGGSLTLSCVDSGSAYLSYCMAWFRQAPGKEREGVAAIYYGGDSYYADSVKGRFTISQDHAKNTMYLQMNSLKPEDTAVYYCAADVGFICGYDSDNDPPNDWGQGTQVTVSS
Reply | 0.17

Ask | # Kd lookup, item VHH:C36-Fc-GpL (Fc fusion, also called VHH-Fc-GpL format protein of C36; not shown: The Fc domain, the C-terminal GpL reporter and the linkers or tags of the VHH-Fc-GpL construct; No entry gives the joined chain or says which Fc variant was used) VHH: HVQLVESGGGSVQAGGSLRLSCAASGFTFSSYYMSWVRQAPGKGLEWVSAIYSDDSDNYSDSVKGRFTISKDNAKNTLYLQMNSLKPEDTAMYYCAAIRIGTDQYKFWGQGTQVTVSS
Reply | 0.08

Ask | # Kd lookup, item VHH:C188-Fc-GpL (Fc fusion, Gaussia princeps, also called VHH-Fc-GpL format protein of C188; not shown: Fc domain; Gaussia princeps luciferase (GpL) reporter domain at the C-terminus of the Fc) DVQLVESGGGSVQTGGSLTLSCAISGSTSERYCLGWFRQAPGREREGVAATSLTGRGAQFYADSVKGRFTISLDDAKNTLYLQMDSLRPDDTAVYYCAEDVGFLCGYDSDNDPFYDWGQGTQVTVSS
Reply | 0.15
